Molecular target: 5-HT2A receptor (Homo sapiens (Human))
Test: 5-HT2A radioligand competition binding ([3H]LSD or [3H]ketanserin)
Reported metric: pKi
Reminder that pKi means the negative base-10 logarithm of the concentration expressed in mol/L.

For the molecule COc1cc(SCCC(F)F)c(OC)cc1CCN [Compound I-3] , what pKi is on record?
7.36

For the molecule [2H]C([2H])([2H])Oc1cc(SC(F)(F)F)c(OC([2H])([2H])[2H])cc1CCN [II-10] , what pKi is on record?
7.46

* * *

Can you tell me concentration at 15 min for the items I'm about to list?
Assay: Plasma and brain concentrations after dosing in mice (screening)
Format: in vivo, mouse
Details: mouse, brain, sc; mice, 3 mg/kg s.c.; read-out: Brain 15 min
Report the value in µM with no unit label.

For the compound "COc1cc(SCC(F)(F)C(F)F)c(OC)cc1CCN" , what concentration at 15 min is on record?
0.9

For the compound "COc1cc(SCCC(F)F)c(OC)cc1CCN" , what concentration at 15 min is on record?
0.67

For the compound "COc1cc(SC(F)F)c(OC)cc1CCN" , what concentration at 15 min is on record?
1.9

For the compound "COc1cc(C(C)(C)C)c(OC)cc1CCN" , what concentration at 15 min is on record?
2.9

* * *

Assay: PK profile in Wistar rats (plasma, brain, urine)
Format: in vivo, rat
Conditions: male, Wistar, rat; plasma; IV 1 mg/kg; read-out: Vz
Reported metric: Vd (L/kg)
Report the value in L/kg with no unit label.

For the molecule COc1cc(SC(F)(F)F)c(OC)cc1CCN [Compound I-1] , what Vd is on record?
22.2

* * *

Molecular target: human 5-HT2B receptor (Homo sapiens (Human), UniProt P41595)
Sequence (P41595 whole entry, looked up): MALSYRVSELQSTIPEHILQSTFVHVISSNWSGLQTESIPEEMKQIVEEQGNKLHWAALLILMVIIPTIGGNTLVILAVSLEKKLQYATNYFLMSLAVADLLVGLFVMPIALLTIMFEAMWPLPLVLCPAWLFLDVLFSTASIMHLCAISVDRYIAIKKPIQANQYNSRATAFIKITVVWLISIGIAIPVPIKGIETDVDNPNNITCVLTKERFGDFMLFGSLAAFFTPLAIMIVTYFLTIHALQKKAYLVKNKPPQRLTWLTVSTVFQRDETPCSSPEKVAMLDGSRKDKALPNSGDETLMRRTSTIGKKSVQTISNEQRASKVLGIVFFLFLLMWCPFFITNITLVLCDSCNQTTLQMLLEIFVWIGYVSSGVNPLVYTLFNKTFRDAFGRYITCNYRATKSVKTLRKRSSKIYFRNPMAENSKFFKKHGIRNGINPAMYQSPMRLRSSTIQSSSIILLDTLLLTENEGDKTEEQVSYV
Assay: 5-HT2B radioligand competition binding ([3H]LSD)
Details: read-out: 5-HT2B, Ki; radioligand [3H]LSD
Reported metric: pKi
Reminder that pKi means the negative base-10 logarithm of the concentration expressed in mol/L.

For the compound "COc1cc(SC(F)(F)F)c(OC)cc1CCNCC1CC1" , what pKi is on record?
7.10

* * *

Assay: PK profile in C57BL/6J mice (plasma, brain)
Assay type: in vivo, mouse
Conditions: male, C57BL/6J, mouse, po; brain; p.o. 3 mg/kg; read-out: AUCINF—obs
Reported metric: AUC(0-inf) (ng·h/mL)
Report the value in ng·h/mL with no unit label.

For the molecule COc1cc(SC(F)(F)F)c(OC)cc1CCN [Compound I-1] , what AUC(0-inf) is on record?
16200

* * *

Experiment: PK in Sprague-Dawley rats (plasma, brain, CSF)
Type: in vivo, rat
Conditions: male, Sprague-Dawley, rat; brain; IV 1 mg/kg
Reported metric: Tmax (min)
Report the value in min with no unit label.

For the compound "COc1cc(SC(F)(F)F)c(OC)cc1CCN" , what Tmax is on record?
15

* * *

Assay: PK profile in C57BL/6J mice (plasma, brain)
Type: in vivo, mouse
Conditions: male, C57BL/6J, mouse, sc; brain; s.c. 3 mg/kg; read-out: T1/2 (converted)
Reported metric: half-life (h)
Report the value in h with no unit label.

For the molecule "COc1cc(SC(F)(F)F)c(OC)cc1CCN" , what half-life is on record?
3.15
